# Study target: T1R umami taste receptor (Homo sapiens, UniProt Q7RTX0+Q7RTX1)
# Sequence (Q7RTX1 21-841): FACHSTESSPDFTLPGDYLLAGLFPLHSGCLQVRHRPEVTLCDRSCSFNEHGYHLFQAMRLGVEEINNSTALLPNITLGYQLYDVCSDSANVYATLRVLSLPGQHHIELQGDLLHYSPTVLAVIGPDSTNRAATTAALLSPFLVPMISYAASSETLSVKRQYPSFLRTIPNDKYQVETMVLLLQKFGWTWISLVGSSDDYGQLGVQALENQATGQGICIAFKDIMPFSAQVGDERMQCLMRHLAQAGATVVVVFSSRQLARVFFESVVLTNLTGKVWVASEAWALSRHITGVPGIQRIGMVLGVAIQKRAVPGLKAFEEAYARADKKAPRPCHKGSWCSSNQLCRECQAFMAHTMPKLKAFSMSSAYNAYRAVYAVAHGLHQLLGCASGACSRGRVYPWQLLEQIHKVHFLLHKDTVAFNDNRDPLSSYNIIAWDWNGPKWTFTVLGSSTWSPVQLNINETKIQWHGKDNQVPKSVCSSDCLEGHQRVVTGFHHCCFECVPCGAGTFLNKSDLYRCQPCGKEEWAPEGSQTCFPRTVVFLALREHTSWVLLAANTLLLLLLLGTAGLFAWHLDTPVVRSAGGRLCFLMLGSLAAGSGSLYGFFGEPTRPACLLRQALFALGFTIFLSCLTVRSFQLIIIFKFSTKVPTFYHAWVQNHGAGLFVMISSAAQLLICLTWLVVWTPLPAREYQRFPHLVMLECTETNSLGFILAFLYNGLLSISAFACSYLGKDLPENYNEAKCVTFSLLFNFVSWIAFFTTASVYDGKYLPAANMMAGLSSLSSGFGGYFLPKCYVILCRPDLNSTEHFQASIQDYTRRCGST
# Sequence (Q7RTX0 21-852): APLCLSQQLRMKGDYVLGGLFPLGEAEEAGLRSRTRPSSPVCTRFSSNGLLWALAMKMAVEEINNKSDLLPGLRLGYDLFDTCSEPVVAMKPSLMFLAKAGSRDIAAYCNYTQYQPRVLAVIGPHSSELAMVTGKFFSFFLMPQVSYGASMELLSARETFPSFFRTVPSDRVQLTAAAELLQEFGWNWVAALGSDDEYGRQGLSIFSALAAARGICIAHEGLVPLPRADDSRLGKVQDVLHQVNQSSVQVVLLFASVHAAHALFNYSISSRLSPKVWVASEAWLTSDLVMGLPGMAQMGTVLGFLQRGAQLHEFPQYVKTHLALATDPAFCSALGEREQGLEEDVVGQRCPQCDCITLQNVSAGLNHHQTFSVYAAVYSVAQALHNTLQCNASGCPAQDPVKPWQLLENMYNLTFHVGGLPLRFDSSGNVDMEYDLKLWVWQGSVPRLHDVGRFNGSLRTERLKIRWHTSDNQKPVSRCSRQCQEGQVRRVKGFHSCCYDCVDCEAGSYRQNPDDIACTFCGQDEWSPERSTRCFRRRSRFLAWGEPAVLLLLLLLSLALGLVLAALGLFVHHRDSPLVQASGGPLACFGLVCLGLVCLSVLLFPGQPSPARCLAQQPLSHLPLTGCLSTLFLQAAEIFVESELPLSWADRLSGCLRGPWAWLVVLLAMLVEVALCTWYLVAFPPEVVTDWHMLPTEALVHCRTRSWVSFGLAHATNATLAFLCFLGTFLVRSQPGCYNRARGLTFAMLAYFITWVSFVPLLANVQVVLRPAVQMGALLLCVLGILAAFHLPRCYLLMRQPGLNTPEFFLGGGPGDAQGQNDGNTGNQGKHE
# Protocol notes: in vitro cell-based assay having cells that express the T1R umami taste receptor (enhancement of MSG)
# Experimental context: cells expressing T1R umami taste receptor; read-out: EC50 for enhancement of MSG binding
pEC50: −log10 of the molar value.
Endpoint name: pEC50

Known results for compounds:
CCOC(=O)[C@@H](CC(C)C)NC(=O)/C=C/C(C)C; 5.48
CCOC(=O)[C@@H](NC(=O)c1ccc(COC)cc1)C(C)C; < 4.30
CCOC(=O)[C@H](Cc1ccccc1)NC(=O)/C=C/c1ccc2c(c1)OCO2; < 4.30

Incoming: Please report the recorded pEC50 for `COC(=O)[C@H](Cc1ccccc1)NC(=O)c1ccc(C)cc1` .
Outgoing: < 4.30

Incoming: Now consider CCC/C=C/C(=O)N[C@@H](CCC(=O)OCC)C(=O)OCC [Compound 178, Diethyl (E)-hex-2-enoyl-L-glutamate] .
Outgoing: < 4.30

Incoming: Now consider `CCOC(=O)[C@@H](NC(=O)/C=C/c1ccc(OCC)cc1)C(C)C` .
Outgoing: 6.00
